# protocolText: growth inhibitors of H69AR lung tumor, primary screen, human, duplicate replicates (AID 580);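 note: 100% = mean luminescence of untreated wells and 0% = no signal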
# appliedConditions: H69AR lung tumor cells viability, ATP luminescence, 72 h; at 10 µM; stronger effect = lower value
metricName: viability (%)
Field: numeric (%). Do not append units.

Field: example entries. Status: answers known.
compound: CCOc1ccccc1NC(=O)NC1CCN(CC(=O)Nc2ccc3c(c2)OCCO3)CC1
metricName: viability
observed: 86.8
--
compound: O=C(CSc1nnc(-c2ccccc2)c(-c2ccccc2)n1)N1CCOCC1
metricName: viability
observed: 85.3
--
compound: Cc1cc2n(n1)C(c1ccccc1)Nc1ccccc1-2 (configuration not stated)
metricName: viability
observed: 90.7
--
compound: CN(CCc1ccccn1)C(=O)CCNC(=O)Cn1cnc2ccccc2c1=O
metricName: viability
observed: 96.4
--
compound: Cc1nnc(SCC2=C(C(=O)O)N3C(=O)[C@@H](NC(=O)Cn4cnnn4)[C@H]3SC2)s1
metricName: viability
observed: 101
--
compound: COC(=O)c1ccc(CNC(=O)COc2ccccc2Br)o1
metricName: viability
observed: 103

// next item, viability requested
[ask] Suppose we examine the compound `Cc1onc(-c2ccccc2)c1C(N)=O` ; what viability value has been reported?
[reply] 100

* * *

# protocolText: reducers of endogenous Her2 protein level, primary screen, SKBR3 breast tumor cells, AlphaScreen, ATP viability (AID 461);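 note: percent of carrier control wells set as 100% viability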
# appliedConditions: 18-24 h, measured here: SKBR3 viability, ATP luminescence, at 10 µM
metricName: viability (%)
State the answer as a number, implicitly in %.

compound: COc1ccc(N2CCN(c3ncnc4c3cnn4-c3ccc(C)cc3C)CC2)cc1
viability / %: 81

[ask] Item under review: C=CCSC1=C(C#N)C(c2ccccc2)CC(=O)N1 (stereo unspecified) . Reported viability?
[reply] 106

[ask] For `COC(=O)c1cc(=O)nc2sc(-c3cccs3)nn12` , what is its reported viability?
[reply] 115

[ask] State the recorded viability for this entry: `O=C(NCc1ccco1)c1cccn2c(=O)c3sccc3nc12`
[reply] 104

[ask] Name the recorded viability for `Cc1ccc2cc3cc(C(=O)NCCN4CCOCC4)oc3nc2c1` .
[reply] 99

[ask] Field request: viability | item: `COCCCn1c2nc3ccccc3nc2c2c(=O)n(-c3ccccc3OC)cnc21`
[reply] 97.5

* * *

# protocolText: growth inhibitors of H69AR lung tumor, primary screen, human, duplicate replicates (AID 580);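 note: 100% = mean luminescence of untreated wells and 0% = no signal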
# appliedConditions: H69AR lung tumor cells viability, ATP luminescence, 72 h; at 10 µM; stronger effect = lower value
So basically, if viability comes in under 90% it's y, and if it's 90% or more it's n.

molecule: COc1cccc(NS(=O)(=O)c2cc(C)sc2C)c1
category: n
//
molecule: C[C@H](NC(=O)NCc1cccs1)C(=O)O
category: n
//
molecule: O=c1oc2ccccc2c(O)c1C=NCc1ccccn1
category: y
//
molecule: Cn1c(=N)c(S(=O)(=O)c2ccc(Cl)cc2)cc2c(=O)n3ccccc3nc21
category: y

For the next question, use this molecule.
[ask] viability under 90%? Item: COc1ccc(N2CC(C(=O)Nc3ccc(F)cc3F)CC2=O)cc1 (configuration not stated)
[reply] n

* * *

# protocolText: growth inhibitors of H69AR lung tumor, primary screen, human, duplicate replicates (AID 580);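 note: 100% = mean luminescence of untreated wells and 0% = no signal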
# appliedConditions: H69AR lung tumor cells viability, ATP luminescence, 72 h; at 10 µM; stronger effect = lower value
Item-by-item account of viability
Report only the number, with the unit % understood.

Observe how each entry below is paired with its result.
compound: COCC(=O)N(Cc1cc2cc(OC)ccc2[nH]c1=O)c1ccccc1
viability, %: 90.4

compound: COC(=O)CN(c1ccc(C)c(Cl)c1)S(C)(=O)=O
viability, %: 101

compound: O=C(COc1cccc(Oc2ccccc2)c1)Nc1ncccn1
viability, %: 94.3

compound: O=C(CCCn1ncn2c(cc3occc32)c1=O)N1CCc2ccccc2C1
viability, %: 84.7

[ask] Need viability of COC(=O)c1ccc(C2NC(C(=O)O)CS2)cc1 (stereo unspecified) , thanks.
[reply] 89

[ask] Find the recorded viability belonging to NC(=O)NC(c1ccccc1)c1ccccc1F (stereo unspecified) and report it.
[reply] 105

* * *

# protocolText: inhibitors of the yeast RAM network, pilot screen, dse1pr::URA3 reporter, 5-FOA selection (AID 869);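 note: 0% = DMSO wells with no growth and 100% = 10 µM 1-NA-PP1 with full growth; RAM network block rescues cells from 5-FOA so hits raise OD615 growth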
# appliedConditions: S. cerevisiae dse1pr::URA3 5-FOA growth, OD615, 2 d; at 10 µM; stronger effect = higher value; strain carries analog-sensitive mutant Cbk1 kinase
metricName: inhibition (%)
Supply the numeric figure in %, leaving out any unit text.

Some entries whose results are on file:
compound: CC(=O)N(Cc1ccco1)C1(C(=O)NC2CCCCC2)CCCCC1
observed: 3.02
--
compound: COc1ccccc1Nc1nc2ccccc2n1C
observed: 1.44
--
compound: CCC1(C)Cc2nc3sc(C(=O)O)c(N)c3cc2CO1 (configuration not stated)
observed: 1.71
--
compound: Cc1nc(N2CCN(Cc3ccc4c(c3)OCO4)CC2)c2oc3ccccc3c2n1
observed: 2
--
compound: CCCN(CCC)S(=O)(=O)c1cc(Br)cc2c1N(C(=O)CC)CC2
observed: 0.885

[ask] Which inhibition value belongs to Cc1cccc(-n2ncc3c(N4CC(C)CC(C)C4)ncnc32)c1 (configuration not stated) ?
[reply] 1.74

[ask] Which inhibition is listed for `Cc1nnc(NC(=O)c2oc3cc(C)c(C)cc3c2C)s1` ?
[reply] 1.64

[ask] Entry CCOc1ccccc1C1N(c2ccc(OC)cc2)C(=O)C2CCCN21 (configuration not stated) has what inhibition?
[reply] 2.9

[ask] Suppose we examine the compound `Clc1ccc(CSc2nnc(-c3cccnc3)n2Cc2ccco2)c(Cl)c1` ; what inhibition value has been reported?
[reply] 2.67

[ask] Any idea what inhibition was measured for `CCOC(=O)c1c(C)oc2cc(Br)c(O)c(Br)c12` ?
[reply] 0.86

[ask] So what does the record say about inhibition for CCN1CCN(C(=O)C(NS(=O)(=O)c2ccc3nc(C)sc3c2)C(C)C)CC1 (configuration not stated) ?
[reply] 0.845

[ask] I have this compound here, `O=C(CSc1nnc(-c2ccccn2)n1Cc1ccco1)c1ccccc1` , and I need its recorded inhibition.
[reply] 0.485

* * *

Listed next: entries and their corresponding viability increase.
# protocolText: viability gain of MRP-1-high H69AR cells under doxorubicin, pilot screen, MRP-1 activator project, CellTiter-Glo, duplicate (AID 807);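 note: compound pretreatment 18-22 h then 72 h combined with doxorubicin; 0% = doxorubicin alone and 100% = vehicle without doxorubicin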
# appliedConditions: H69AR viability with doxorubicin, CellTiter-Glo luminescence; at 10 µM; stronger effect = higher value
Quick reminder: number only, in %, skip the unit.

Sample answers from the record:
molecule: C=CCn1c(C)cc(C(=O)COc2nncc3ccccc23)c1C
metricName: viability increase
unitText: %
observed: -2.37
--
molecule: Cc1cc(F)ccc1S(=O)(=O)Nc1c(C)n(C)n(-c2ccccc2)c1=O
metricName: viability increase
unitText: %
observed: -1.59
--
molecule: CC(=O)C1=C(C)NC(SCC(N)=O)=C(C#N)C1c1cccnc1 (stereo not drawn)
metricName: viability increase
unitText: %
observed: 1.67

[ask] What does the data say about its viability increase? Entry: `COc1ccc(-n2nnc3c(=O)n(CC(=O)N4CCC(Cc5ccccc5)CC4)cnc32)cc1`
[reply] -1.03

[ask] So what's the measured viability increase for this one? `N#C/C(=C1\CCCN1)c1ccc2ccccc2n1`
[reply] -4.02

* * *

# protocolText: RAM signaling pathway blockade in yeast – S. cerevisiae, Pdr1DBD-CYC8 efflux-inhibited sensitized strain, primary screen (AID 1298);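 note: 0% = DMSO untreated cells without growth and 100% = 10 µM 1-NA-PP1 full growth; higher means more yeast growth rescued from 5-FOA killing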
# appliedConditions: S. cerevisiae cbk1-as DSE1-URA3 strain, 5-FOA growth OD615, 2 d; at 50 µM; stronger effect = higher value
metricName: RAM network inhibition (%)
Write it as a number; the unit % goes unstated.

Reference set, count: 5
compound: Cc1ccc(Nc2nc(C3CC3)cs2)cc1
RAM network inhibition (%): 2.72
--
compound: O=C(Nc1ccc(F)cc1)c1cc(S(=O)(=O)N2CCCCC2)cs1
RAM network inhibition (%): -0.1
--
compound: O=C(COCCOCC(=O)N(c1ccccn1)C1CCCCC1)N(c1ccccn1)C1CCCCC1
RAM network inhibition (%): 8.62
--
compound: Clc1ccc(Sc2oc(/C=N/n3cnnc3)cc2Br)cc1
RAM network inhibition (%): 1.69
--
compound: COc1ccc(C2C(C(=O)c3ccco3)=C(O)C(=O)N2CCc2ccccc2)cc1OC (stereo not given)
RAM network inhibition (%): 4.36

[ask] Recorded RAM network inhibition of `COc1ccc(-c2csc(N3CCN(C(=O)c4ccco4)CC3)n2)cc1` , please.
[reply] 2.04

[ask] Suppose we examine the compound `Cc1nn(-c2cccc(C(F)(F)F)c2)c(Cl)c1/C=N/n1cnnc1` ; what RAM network inhibition value has been reported?
[reply] 1.77

[ask] What value of measured RAM network inhibition is listed for COc1ccc(C2C=C(c3ccccc3)Nc3nnnn32)cc1 (stereo not given) ?
[reply] 5.93

[ask] # lookup: RAM network inhibition of CC1CCCCN1Cc1nc2c(c(=O)n(C)c(=O)n2C)n1Cc1c(F)cccc1Cl (stereo not given)
[reply] 0.66

[ask] Would you mind telling me what RAM network inhibition value was observed for `CC(C)c1nc2sc3c(SCC(=O)NCc4ccco4)ncnc3c2c2c1CCC2` ?
[reply] 5.66

[ask] Which RAM network inhibition reading was recorded for the compound `O=C(OCN1C(=O)c2ccccc2C1=O)c1ccco1` ?
[reply] 3.35
